target: T1, Monomeric 8-histidine tagged human EGFRvIII extracellular domain (human, UniProt P00533 298-645); experiment: SPR, captured by anti-mouse Fc, 37 C
T1 construct: Analyte in all SPR assays; not shown: 8-histidine tag
Consider the cut-off 80 nM. If the recorded Kd is strictly smaller, the label is true; if not, the label is false.

Solved cases (3 shown):
{"binder": "32A10 (antibody, V domains shown, Hybridoma supernatant (AlivaMab mouse); captured/detected via mouse Fc) VH: QVTLKESGPVLVKPTETLTLTCTVSGFSLSNARMGVSWIRQPPGKALEWLAHIFSTDEKSIRRSLRSRLTLSKDTSKSQVVLTMTNMDPVDTATYFCARDSSNYEGYFDYWGQGTLVTVSS VL: EVVMTQSPATLSVSPGERVTLSCRASQSVSSNFAWYQQRPGQAPRLLLYGATTRATGLPGRFSGSGSGTENILTISSLQSEDFAIYFCQQYKDWPFTFGPGSKVDIK", "class.name": "true"}
{"binder": "34E7 (antibody, V domains shown, Hybridoma supernatant (AlivaMab mouse); captured/detected via mouse Fc) VH: EVNLVESGGGLVKPGGSLRLSCEASGFTFSYAWMSWVRQAPGKGLEWVGRIKSINDGGATDYASPVRNRFTISRDDSRNMLYLEMHSLKTEDTAVYYCTTIPGNDAFDMWGQGTLVTVSS VL: DIVLTQSPLSLSVTPGEPASISCRSTQSLLYSNGKNYLDWFLHKPGQSPQLLIFLGSIRASGVPDRFSGSGSGIDFILKISRVEAEDVGVYYCMQAQQTPITFGQGTRLEIK", "class.name": "false"}
{"binder": "46E10 (antibody, V domains shown, Hybridoma supernatant (AlivaMab mouse); captured/detected via mouse Fc) VH: QVTLKESGPVLVKPTETLTLTCTVSGFSLSNARMGVSWIRQPPGKALEWLAHIFSTDEKSIRRSLRSRLTLSKDTSKSQVVLIMTNMDPVDTATYYCARDSSNYEGYFDYWGQGTLVTVSS VL: EVVMTQSPPNLSVSPGERATLSCRASQSVTSNFAWYQQRPGQSPRLLLYGASTRATGVPGRFSGSGSGTENILTISSLQSEDFAVYFCQQYKDWPFTFGPGSKVDIK", "class.name": "true"}

Please find the next binder below.
Enquiry: Quick check: Kd of 19A9 (antibody, V domains shown, Hybridoma supernatant (AlivaMab mouse); captured/detected via mouse Fc) VH: QVTLEESGPVLVKPTETLTLTCTVSGFSLSNARMGVSWIRQPPGKAPEWFAHIFSTDEKSLRLSLRSRLTLSKDTSKSQVVLTMTNMDPVDTATYYCARDSSNYEGYFDYWGQGTLVTVSS VL: EVVMTQSPATLSVSPGERATLSCRASQSVNRNLAWYQQKPGQAPRLLIFGTSTRATGIPARFSGSGSGTEFTLTIDSLQSEHSGLYYCQQYNDWPFTFGPGTKVDIK under 80 nM?
Return: true

Origin of the recorded values: patent US20190144550A1
